Molecular target: hGLP-1R (Homo sapiens, UniProt P43220)
Sequence (P43220 24-463): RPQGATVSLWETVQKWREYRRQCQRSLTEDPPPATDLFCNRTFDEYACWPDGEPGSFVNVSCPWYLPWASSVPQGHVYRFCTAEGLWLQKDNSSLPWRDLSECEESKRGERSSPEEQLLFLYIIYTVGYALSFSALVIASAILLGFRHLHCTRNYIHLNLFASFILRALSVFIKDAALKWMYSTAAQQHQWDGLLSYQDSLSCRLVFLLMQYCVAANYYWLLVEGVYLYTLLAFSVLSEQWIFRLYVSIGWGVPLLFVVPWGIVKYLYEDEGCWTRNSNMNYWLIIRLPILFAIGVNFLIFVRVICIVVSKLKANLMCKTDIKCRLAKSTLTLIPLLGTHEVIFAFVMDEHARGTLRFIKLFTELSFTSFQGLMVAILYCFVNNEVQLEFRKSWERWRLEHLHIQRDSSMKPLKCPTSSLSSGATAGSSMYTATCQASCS
Test: cell-based or functional assay
The following binders are listed with their measured Relative cAMP EC50 values.
READOUT_NAME: Relative cAMP EC50 (nM)

BINDER | UNITS_OF_MEASURE | MEASURED_VALUE
YXQGTXTSDXXIXLDXKAQXEFIEXLIEGGPSSGEPPPSGS (not fully specified; synthetic construct; SITE 2: note = 2-Aminoisobutyric Acid; SITE 6: note = alpha-methyl-2-fluoro-L-phenylalanine; SITE 10: note = 3-(4-Pyridyl)-L-alanine; SITE 11: note = alpha-methyl-L-serine; SITE 13: note = alpha-methyl-leucine; SITE 16: note = L-ornithine; SITE 17: note = Lysine is chemically mo) [Example 1208] | nM | 0.526
YXQGTXTSDXXIXLDXKAQXEFIEXLIEGGPSSGEPPPSGGGE (non-natural residues, AEEA-(γGlu)2-C18 diacid acyl on K, C-terminal amide; synthetic construct; SITE 2: note = 2-Aminoisobutyric Acid; SITE 6: note = alpha-methyl-2-fluoro-L-phenylalanine; SITE 10: note = 3-(4-Pyridyl)-L-alanine; SITE 11: note = alpha-methyl-L-serine; SITE 13: note = alpha-methyl-leucine; SITE 16: note = L-ornithine; SITE 17: note = Lysine is chemically mo) [Example 1181] | nM | 0.664
YXQGTFTSDXSQXLDXKAQXAFIEXLIEGGPSSGEPPPSGSEE (Aib, 4Pal, αMeL, Orn, Me4Pal, αMeY; lipidated Lys; C-terminal amide; synthetic construct; SITE 2: note = 2-Aminoisobutyric Acid; SITE 10: note = 3-(4-Pyridyl)-L-alanine; SITE 13: note = alpha-methyl-leucine; SITE 16: note = L-ornithine; SITE 17: note = Lysine is chemically modified through conjugation of the epsilon-amino group of the Lysine side chain with (gamma-Gl)) [Example 1027] | nM | 1.23
YXQGTFTSDFSXXLDKKAQXAFIEYLLEXGPSSGXPPPSGS (Aib, Orn, alpha-methyl-Leu, lipidated Lys, C-terminal amide; synthetic construct; SITE 2: note = 2-Aminoisobutyric Acid; SITE 12: note = L-ornithine; SITE 13: note = alpha-methyl-leucine; SITE 17: note = Lysine is chemically modified through conjugation of the epsilon-amino group of the Lysine side chain with (2-[2-(2-Amino-ethoxy)-ethoxy]-acetyl)-(gamma-Glu)) [Example 239] | nM | 2.9
YXQGTFTSDFSKXLDKKAQXAFIEYLLEGGPSSGAPPPXGE (synthetic construct; SITE 2: note = 2-Aminoisobutyric Acid; SITE 13: note = alpha-methyl-leucine; SITE 17: note = Lysine is chemically modified through conjugation of the epsilon-amino group of the Lysine side chain with (2-[2-(2-Amino-ethoxy)-ethoxy]-acetyl)-(gamma-Glu)-CO-(CH2) 18-CO2H; SITE 20: n) [Example 53] | nM | 3.31
